Could you please report measured yeast fitness for the items listed next?
B1: tRNA (parent)
chain: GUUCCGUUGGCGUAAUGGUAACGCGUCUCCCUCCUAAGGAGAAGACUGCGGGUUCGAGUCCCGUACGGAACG

- Variants of: B1
- PROCEDURE DETAILS: yeast fitness relative to wild type (ratio to wild type); higher = fitter; tRNA-Arg(CCU), competitive growth, 37 C, YPD
Variants at the floor of the assay were thinned out.
Field format: numeric only.

Input C11U A37C C66U , output reported yeast fitness.
0.611

Input G10C C46A C55U , output reported yeast fitness.
0.603

Input A42G G44C U59A , output reported yeast fitness.
0.537

Input C22U A36C , output reported yeast fitness.
0.616

Hello, the source for this data is the RNAGym collection of RNA variant scans (doi:10.1126/science.aae0568), in case you need it.
